Can you tell me tissue uptake at 72 h for the items I'm about to list?
Experiment: in vivo
Design: species or system mice
Details: male, NODSCID 1L2RγKO, mouse, iv, total radioactivity, Tail uptake
The response must be a number in %ID/g with no trailing unit.

The compound identified as O=C(O)CCC[C@H](NC(=O)N[C@@H](CCCCNC(=O)[C@H](Cc1c2ccccc2cc2ccccc12)NC(=O)[C@H]1CC[C@H](CNC(=O)CN2CCN(CC(=O)O)CCN(CC(=O)O)CCN(CC(=O)O)CC2)CC1)C(=O)O)C(=O)O [177Lu-HTK03149, metal not drawn] registered its tissue uptake at 72 h at 0.08

The compound identified as O=C(O)CCC[C@H](NC(=O)N[C@@H](CCCCNC(=O)[C@H](Cc1c2ccccc2cc2ccccc12)NC(=O)[C@H]1CC[C@H](CNC(=O)[C@H](CCCCNC(=O)CN2CCN(CC(=O)O)CCN(CC(=O)O)CCN(CC(=O)O)CC2)NC(=O)CNC(=O)CCCc2ccc(Cl)cc2)CC1)C(=O)O)C(=O)O [177Lu-HTK03153, metal not drawn] registered its tissue uptake at 72 h at 0.44

The compound identified as COc1ccc(CCCC(=O)NCC(=O)N[C@@H](CCCCNC(=O)CN2CCN(CC(=O)O)CCN(CC(=O)O)CCN(CC(=O)O)CC2)C(=O)NC[C@H]2CC[C@H](C(=O)N[C@@H](Cc3c4ccccc4cc4ccccc34)C(=O)NCCCC[C@H](NC(=O)N[C@@H](COCC(=O)O)C(=O)O)C(=O)O)CC2)cc1 [177Lu-HTK04028, metal not drawn] registered its tissue uptake at 72 h at 0.15

The compound identified as COc1ccc(CCCC(=O)NCC(=O)N[C@@H](CCCCNC(=O)CN2CCN(CC(=O)O)CCN(CC(=O)O)CCN(CC(=O)O)CC2)C(=O)NC[C@H]2CC[C@H](C(=O)N[C@@H](Cc3c4ccccc4cc4ccccc34)C(=O)NCCCC[C@H](NC(=O)N[C@@H](CSCC(=O)O)C(=O)O)C(=O)O)CC2)cc1 [177Lu-HTK04048, metal not drawn] registered its tissue uptake at 72 h at 0.15

The compound identified as COc1ccc(CCCC(=O)NCC(=O)N[C@@H](CCCCNC(=O)CN2CCN(CC(=O)O)CCN(CC(=O)O)CCN(CC(=O)O)CC2)C(=O)NC[C@H]2CC[C@H](C(=O)N[C@@H](Cc3c4ccccc4cc4ccccc34)C(=O)NCCCC[C@H](NC(=O)N[C@@H](CCCC(=O)O)C(=O)O)C(=O)O)CC2)cc1 [177Lu-HTK03170, metal not drawn] registered its tissue uptake at 72 h at 0.19
